System under test: UniProt:P20813
Sequence (P20813 whole entry): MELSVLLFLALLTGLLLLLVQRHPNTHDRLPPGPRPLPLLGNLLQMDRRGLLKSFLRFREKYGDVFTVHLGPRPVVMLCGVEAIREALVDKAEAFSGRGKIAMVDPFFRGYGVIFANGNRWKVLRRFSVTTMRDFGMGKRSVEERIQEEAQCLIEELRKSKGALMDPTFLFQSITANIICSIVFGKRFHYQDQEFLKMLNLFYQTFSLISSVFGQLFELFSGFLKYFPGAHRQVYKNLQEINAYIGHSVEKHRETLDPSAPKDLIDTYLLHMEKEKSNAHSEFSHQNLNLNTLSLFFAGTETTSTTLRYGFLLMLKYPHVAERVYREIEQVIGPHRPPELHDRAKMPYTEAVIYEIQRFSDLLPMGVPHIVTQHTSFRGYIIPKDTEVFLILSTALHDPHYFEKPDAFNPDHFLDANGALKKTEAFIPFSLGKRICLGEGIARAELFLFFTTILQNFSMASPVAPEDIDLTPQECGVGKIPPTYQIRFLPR
Measurement protocol: in vitro
Measurement setup: pH 7.4, Regioselectivity BzH:Arom
Assay endpoint: selectivity ratio
Numbers only.

The reported value for COc1ccccc1C [o-Methylanisole, o-methylanisole] in terms of selectivity ratio is 2

###

Tested on: CYP2B6, CYP2C9, CYP4B1
Measurement protocol: in vitro
Measurement setup: pH 7.4, Regioselectivity BzH:Arom, range, isoforms 2B6, 2C9 and 4B1
Assay endpoint: selectivity ratio at 20 min, […]

The reported value for COc1ccccc1C in terms of selectivity ratio at 20 min, […] is 1.6 to 22

###

System under test: UniProtKB P05177
Sequence (P05177 1-516): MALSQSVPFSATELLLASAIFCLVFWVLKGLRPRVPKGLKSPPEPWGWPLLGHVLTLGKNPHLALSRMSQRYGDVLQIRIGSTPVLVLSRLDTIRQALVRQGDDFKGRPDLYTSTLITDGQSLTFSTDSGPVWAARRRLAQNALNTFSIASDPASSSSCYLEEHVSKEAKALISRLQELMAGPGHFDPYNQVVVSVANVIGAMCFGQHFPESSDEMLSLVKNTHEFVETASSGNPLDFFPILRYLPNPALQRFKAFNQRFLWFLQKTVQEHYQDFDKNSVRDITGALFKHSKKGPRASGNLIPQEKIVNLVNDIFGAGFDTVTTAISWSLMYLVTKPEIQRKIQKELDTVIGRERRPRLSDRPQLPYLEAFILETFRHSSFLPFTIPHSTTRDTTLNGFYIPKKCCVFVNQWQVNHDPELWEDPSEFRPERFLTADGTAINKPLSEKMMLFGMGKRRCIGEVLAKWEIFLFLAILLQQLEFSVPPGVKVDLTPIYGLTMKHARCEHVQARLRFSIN
Measurement protocol: in vitro
Measurement setup: pH 7.4, Regioselectivity BzH:Arom
Assay endpoint: selectivity ratio
Answers are plain numbers.

The reported value for COc1ccccc1C in terms of selectivity ratio is 0.63
